Reference source: patent US20240409663A1

Target: T1, human GPC3-his tag protein (human, UniProt P51654 25-559, limits assumed)
T1 construct: recombinant soluble antigen used as analyte in all Biacore runs; also called recombinant GPC3 protein; rhGPC3-His; not shown: His tag
Experiment: SPR Biacore 8K, mAb captured, affinity ranking
Recorded pKd, one value per entry.
Lab note — pKd values are minus log10 of concentrations in M.

Binder	pKd
52H5D3B8-6#-VH4+VL1 (antibody, V domains shown, humanized) VH: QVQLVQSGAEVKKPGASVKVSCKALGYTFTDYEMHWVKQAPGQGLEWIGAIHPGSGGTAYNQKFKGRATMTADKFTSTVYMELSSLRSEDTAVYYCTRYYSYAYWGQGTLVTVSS VL: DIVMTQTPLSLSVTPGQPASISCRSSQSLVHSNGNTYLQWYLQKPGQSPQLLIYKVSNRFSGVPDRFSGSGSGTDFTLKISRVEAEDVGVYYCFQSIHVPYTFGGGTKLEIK	9.00

Sure, the documented pKd for 52H5D3B8-6#-VH3+VL2 (antibody, V domains shown, humanized) VH: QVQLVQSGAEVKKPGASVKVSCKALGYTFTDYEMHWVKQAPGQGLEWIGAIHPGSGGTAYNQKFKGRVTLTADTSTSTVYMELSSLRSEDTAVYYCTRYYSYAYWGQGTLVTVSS VL: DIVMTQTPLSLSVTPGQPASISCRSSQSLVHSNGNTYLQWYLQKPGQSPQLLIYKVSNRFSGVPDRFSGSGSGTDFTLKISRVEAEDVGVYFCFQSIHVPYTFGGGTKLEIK is 9.05
